- Test system: Staphylococcus aureus
- protocol-text: In vitro antibacterial activity against Staphylococcus aureus MPR 5
- Format: functional
measured-property: MIC (µg/mL)

Record excerpt, results attached:
O=C(O)c1cn(C2CC2)c2cc(N3CCNCC3)c(F)cc2c1=O    0.25
Cc1c(N2CCNCC2)ccc2c(=O)c(C(=O)O)cn(C3CC3)c12.Cl    0.25
Cc1c(N2CCC(N)C2)ccc2c(=O)c(C(=O)O)cn(C3CC3)c12 (stereo not given)    0.125

A. CN1CCN(c2cc3c(cc2F)c(=O)c(C(=O)O)cn3C2CC2)CC1
B. Cc1c(N2CCN(C)CC2)c(N)cc2c(=O)c(C(=O)O)cn(C3CC3)c12
Given A and given B , which shows the smaller recorded MIC? In your reply, give the label of the chosen option.
A

---

- test-system: DNA gyrase (Escherichia coli, UniProt P0AES4+P0AES6)
- protocol-text: Inhibitory effect against Escherichia coli Gyrase in Supercoiling assay
measured-property: IC50 (µM)

Record excerpt, results attached:
O=C(O)c1cn(C2CC2)c2cc(N3CCCCC3)c(F)cc2c1=O    97.2
Cc1c(N2CCN(C)CC2)c(N)cc2c(=O)c(C(=O)O)cn(C3CC3)c12    10.7
Cc1c(N2CCCCC2)ccc2c(=O)c(C(=O)O)cn(C3CC3)c12    10.1
Cc1c(N2CCCCC2)c(F)cc2c(=O)c(C(=O)O)cn(C3CC3)c12    6.97
Cc1c(N2CCN(C)CC2)c(F)cc2c(=O)c(C(=O)O)cn(C3CC3)c12    16.4
Cc1c(N2CCc3ccccc3C2)c(N)cc2c(=O)c(C(=O)O)cn(C3CC3)c12    9.24
O=C(O)c1cn(C2CC2)c2cc(N3CCc4ccccc4C3)c(F)cc2c1=O    28.5
Cc1c(N2CCc3ccccc3C2)c(F)cc2c(=O)c(C(=O)O)cn(C3CC3)c12    7.64

a. Cc1c(N2CCCCC2)c(N)cc2c(=O)c(C(=O)O)cn(C3CC3)c12
b. Cc1c(N2CCc3ccccc3C2)ccc2c(=O)c(C(=O)O)cn(C3CC3)c12
c. Cc1c(N2CCN(C)CC2)ccc2c(=O)c(C(=O)O)cn(C3CC3)c12
d. CN1CCN(c2cc3c(cc2F)c(=O)c(C(=O)O)cn3C2CC2)CC1
Ascending sort, IC50. Quick reminder: the answer is the labels in the order asked.
d, a, b, c
(d: 4.34 µM, a: 9.37 µM, b: 20.8 µM, c: 83.5 µM)

---

Catalogue of compounds with associated MIC
- System: Staphylococcus aureus
- protocol-text: In vitro antibacterial activity against Staphylococcus aureus MPR 5
- Format: functional

Record excerpt, results attached:
Cc1c(N2CCCCC2)ccc2c(=O)c(C(=O)O)cn(C3CC3)c12    < 0.016 µg/mL
Cc1c(N2CCSCC2)ccc2c(=O)c(C(=O)O)cn(C3CC3)c12    > 0.016 µg/mL
Cc1c(N2CC(C)OC(C)C2)ccc2c(=O)c(C(=O)O)cn(C3CC3)c12 (configuration not stated)    < 0.016 µg/mL
Cc1c(N2CCCCC2)c(F)cc2c(=O)c(C(=O)O)cn(C3CC3)c12    < 0.016 µg/mL
Cc1c(N2CCCCC2)c(N)cc2c(=O)c(C(=O)O)cn(C3CC3)c12    < 0.016 µg/mL

For the compound Cc1c(N2CCc3ccccc3C2)c(N)cc2c(=O)c(C(=O)O)cn(C3CC3)c12 , give its reported MIC.
< 0.016 µg/mL

For the compound Cc1c(N2CC(C)CC(C)C2)ccc2c(=O)c(C(=O)O)cn(C3CC3)c12 (configuration not stated) , give its reported MIC.
< 0.016 µg/mL

Every entry's value here was drawn from ChEMBL document CHEMBL1129595.
